PROTOCOL TEXT: Binding affinity value against thrombin
RECORDED METRIC: Ki (nM)

[A] N=C(N)c1ccc2cc(C(=O)Nc3ccccc3)cc(-c3ccoc3)c2c1
[B] N=C(N)c1ccc2cc(/C=C/c3ccccc3)cc(Br)c2c1
[C] N=C(N)c1ccc2cc(C3CC3c3ccccc3)ccc2c1 (stereo not drawn)
# ascending order, key=Ki Answer format: list of labels, ordered as asked. A, B, C

====

PROTOCOL TEXT: Bioavailability in sprague dawley rat was determined at a dosage of 3 mg/kg; NT means not tested
Format: ADME, organism-based
CONDITIONS: in vivo
RECORDED METRIC: AUC (µM·h)
# output: bare number, implied unit µM·h

Entry N=C(N)c1ccc2cc(C(=O)Nc3ccccc3)cc(Br)c2c1 : reported AUC = ? 0.6
